# assay target: Poly [ADP-ribose] polymerase tankyrase-2 (Homo sapiens)
# Sequence (Q9H2K2 whole entry): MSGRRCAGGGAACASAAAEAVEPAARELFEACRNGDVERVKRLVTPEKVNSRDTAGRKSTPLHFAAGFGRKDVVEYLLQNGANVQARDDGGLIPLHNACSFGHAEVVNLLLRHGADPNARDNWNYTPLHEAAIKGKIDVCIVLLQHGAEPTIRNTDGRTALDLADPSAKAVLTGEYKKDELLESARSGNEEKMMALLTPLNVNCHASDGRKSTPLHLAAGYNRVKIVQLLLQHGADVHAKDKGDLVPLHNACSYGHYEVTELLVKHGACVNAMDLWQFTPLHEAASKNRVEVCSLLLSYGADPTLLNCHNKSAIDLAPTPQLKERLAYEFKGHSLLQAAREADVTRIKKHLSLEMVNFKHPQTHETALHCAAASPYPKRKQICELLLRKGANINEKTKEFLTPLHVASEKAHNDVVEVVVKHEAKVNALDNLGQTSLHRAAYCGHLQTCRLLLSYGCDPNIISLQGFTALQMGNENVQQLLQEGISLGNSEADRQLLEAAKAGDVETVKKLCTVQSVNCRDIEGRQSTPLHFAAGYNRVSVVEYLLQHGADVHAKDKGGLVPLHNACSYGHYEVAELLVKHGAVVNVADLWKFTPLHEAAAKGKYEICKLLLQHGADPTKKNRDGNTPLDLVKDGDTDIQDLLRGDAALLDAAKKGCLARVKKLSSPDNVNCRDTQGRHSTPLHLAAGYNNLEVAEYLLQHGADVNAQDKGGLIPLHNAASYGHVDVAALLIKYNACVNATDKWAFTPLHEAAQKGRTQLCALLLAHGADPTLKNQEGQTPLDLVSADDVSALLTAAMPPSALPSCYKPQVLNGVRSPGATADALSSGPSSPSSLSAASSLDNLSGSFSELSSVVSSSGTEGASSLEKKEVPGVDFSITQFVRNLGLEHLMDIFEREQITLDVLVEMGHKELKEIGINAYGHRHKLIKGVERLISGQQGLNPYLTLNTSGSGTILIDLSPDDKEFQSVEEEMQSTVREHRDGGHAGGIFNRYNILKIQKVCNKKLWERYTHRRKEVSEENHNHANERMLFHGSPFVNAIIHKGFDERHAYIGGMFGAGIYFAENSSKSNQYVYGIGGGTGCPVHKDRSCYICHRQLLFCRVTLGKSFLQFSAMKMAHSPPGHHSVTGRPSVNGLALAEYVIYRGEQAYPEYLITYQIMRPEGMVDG
measurement kind: IC50 (nM)

## Task Request - read-out IC50 | tested on Poly [ADP-ribose] polymerase tankyrase-2 (Homo sapiens) | compound Cc1cc(=O)[nH]c2cc(-c3ccccc3F)ccc12
## Result 52

## Task Lookup: IC50 / Poly [ADP-ribose] polymerase tankyrase-2 (Homo sapiens) / Cc1cc(=O)[nH]c2cc(-c3ccc(F)cc3)ccc12
## Result 310

1: COCCNC(=O)c1ccc(-c2ccc3c(C)cc(=O)[nH]c3c2)c(Cl)c1
2: Cc1cc(=O)[nH]c2cc(-c3ccc(C(=O)O)cc3Cl)ccc12
## Task Identify the item whose IC50 is the smaller number: 1 or 2 Write down the label attached to your selection.
## Result 1
(1: 9 nM, 2: 21 nM)

Origin of values: ChEMBL document CHEMBL2380224
